- Test system: Human immunodeficiency virus 1
- assay_notes: Antiviral activity against HIV1 N-19 harboring integrase D10E, E11D, D25E, V31I, I113V, S119G, A124N, V151I, V201I, N232D mutant gene infected in human TZM-bl cells assessed as beta-galactosidase expression after 48 hrs by microplate luminometry relative to HIV1 R7/3 expressing wild type integrase enzyme
- Assay type: functional
Entries and their measured Ratio EC50 follow.
Simply state the number, no unit and no words.

| cpd_smiles | system_under_test | Ratio EC50 |
| --- | --- | --- |
| CN(C)C(=O)C(=O)NC(C)(C)c1nc(C(=O)NCc2ccc(F)cc2)c(O)c(=O)n1C | Human immunodeficiency virus 1 | 0.998 |
| O=C(NCc1ccc(F)cc1)c1nc(N2CCCCS2(=O)=O)c2cccnc2c1O | Human immunodeficiency virus 1 | 1.416 |
| CN(C)C(=O)C(=O)N(C)c1nc(C(=O)NCc2ccc(F)cc2)c(O)c2ncccc12 | Human immunodeficiency virus 1 | 0.927 |

// moving on: another record for Ratio EC50
Give the reported value of Ratio EC50 for this record: CNC(=O)c1cc(F)ccc1CNC(=O)c1nc(N2CCCCS2(=O)=O)c2cccnc2c1O 0.456
